assay: Human liver microsome metabolic stability; assay type: in vitro ADME; settings: human liver microsomes; 1 µM
measured-endpoint: HLM T1/2 (min)
Report only the number, with the unit min understood.

Worked cases, HLM T1/2 given:
[
  {
    "compound": "O=C(Cc1cc(-n2cc(Cl)c3cc(Cl)cc(Cl)c32)ncn1)NCCO [Compound 851]",
    "value-units": "min",
    "HLM T1/2": 60.6
  },
  {
    "compound": "CC1(C)CN(c2cncc(CC(=O)NC3COCC3O)c2)c2c(Cl)cc(Cl)cc21 (centres unmarked) [Compound 720]",
    "value-units": "min",
    "HLM T1/2": 6.1
  },
  {
    "compound": "O=C(Cc1cncc(N2CC3(CC3)c3cc(Cl)cc(Cl)c32)c1)NC1COCC1O (centres unmarked) [Compound 730]",
    "value-units": "min",
    "HLM T1/2": 9.9
  },
  {
    "compound": "O=C(Cc1cncc(-n2cc(Cl)c3cc(Cl)cc(Cl)c32)c1)N[C@@H]1COC[C@H]1O [Compound 661]",
    "value-units": "min",
    "HLM T1/2": 19.3
  }
]

Consider the additional compound presented here.
Per the record, CC1CN(c2cncc(CC(=O)NC3COCC3O)c2)c2c(Cl)cc(Cl)cc21 (mixture of isomers) [Compound 710] has HLM T1/2 of 10.1

---

molecular target: kappa opioid receptors (Homo sapiens); construct: Eurofins DiscoverX, USA; experiment: Functional selectivity panel, kappa opioid receptors; details: PAM
Sequence (P41145 whole entry): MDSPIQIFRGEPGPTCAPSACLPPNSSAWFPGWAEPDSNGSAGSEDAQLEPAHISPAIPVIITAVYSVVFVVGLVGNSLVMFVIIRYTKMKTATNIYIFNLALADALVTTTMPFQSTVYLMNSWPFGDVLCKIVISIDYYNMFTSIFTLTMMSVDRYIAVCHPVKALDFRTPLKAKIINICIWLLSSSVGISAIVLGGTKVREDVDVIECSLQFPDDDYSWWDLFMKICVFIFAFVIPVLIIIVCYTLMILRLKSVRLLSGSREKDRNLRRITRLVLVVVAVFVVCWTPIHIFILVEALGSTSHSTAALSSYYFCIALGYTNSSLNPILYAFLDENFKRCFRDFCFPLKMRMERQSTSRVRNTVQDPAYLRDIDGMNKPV
measured-endpoint: pEC50
pEC50 is defined as minus the log10 of a concentration measured in mol/L.

Value of pEC50 reported for the compound O=C(Cc1cncc(-n2cc(Cl)c3cc(Cl)cc(Cl)c32)c1)N[C@@H]1COC[C@H]1O [Compound 661] is 5.15

---

Measured CYP-TDI (midazolam), (−)NADPH/(+)NADPH Ratio CYP3A4, listed per entry for reference.
system: CYP3A4; experiment: CYP inhibition / time-dependent inhibition, CYP3A4_Midazolam; format: in vitro ADME, human; conditions: role: inhibitor; substrate midazolam 2.0 μM; CYP TDI ratio

[
  {
    "compound": "O=C(Cc1cncc(-n2cc(C(F)(F)F)c3cc(Cl)cc(Cl)c32)c1)N[C@@H]1COC[C@H]1O [Compound 770]",
    "target-desc": "CYP3A4",
    "observed-result": ">1.9"
  },
  {
    "compound": "O=C(Cc1cncc(-n2cc(C3CC3)c3cc(Cl)cc(Cl)c32)c1)N[C@@H]1COC[C@H]1O [Compound 790]",
    "target-desc": "CYP3A4",
    "observed-result": 2.04
  },
  {
    "compound": "O=C(Cc1cncc(N2CC3(CC3)c3cc(Cl)cc(Cl)c32)c1)NC1COCC1O (centres unmarked) [Compound 730]",
    "target-desc": "CYP3A4",
    "observed-result": ">1.57"
  },
  {
    "compound": "O=C(Cc1nccc(-n2cc(Cl)c3cc(Cl)cc(Cl)c32)n1)NCCO [Compound 767]",
    "target-desc": "CYP3A4",
    "observed-result": 1.20
  },
  {
    "compound": "CC(C)(C)c1cn(-c2cncc(CC(=O)N[C@@H]3COC[C@H]3O)c2)c2c(Cl)cc(Cl)cc12 [Compound 800]",
    "target-desc": "CYP3A4",
    "observed-result": ">2.67"
  }
]

Short answer for O=C(Cc1ccnc(-n2cc(Cl)c3cc(Cl)cc(Cl)c32)n1)N[C@@H]1COC[C@H]1O [Compound 820] : CYP-TDI (midazolam), (−)NADPH/(+)NADPH Ratio CYP3A4 was <0.9

Consider CC1CN(c2cncc(CC(=O)NC3COCC3O)c2)c2c(Cl)cc(Cl)cc21 (mixture of isomers) [Compound 710] . Its measured CYP-TDI (midazolam), (−)NADPH/(+)NADPH Ratio CYP3A4 is 1.22

Briefly, CYP-TDI (midazolam), (−)NADPH/(+)NADPH Ratio CYP3A4 measured for CC1(C)CN(c2cncc(CC(=O)NC3COCC3O)c2)c2c(Cl)cc(Cl)cc21 (centres unmarked) [Compound 720] : >1.6
